# Test system: ECV-304
# test: Reduction in [3H]cholesterol uptake in human ECV304 cells after 1 hr by liquid scintillation counting
# Type: functional, cell-based
Active and inactive are the calls of the source. No cut-off for these calls is given here.
// allowed return values: 1.0 for active, 0.0 for inactive

Query :: What call does the record list for C[C@H]1O[C@@H](O[C@H]2[C@H](O)[C@@H](O[C@H]3CC[C@]4(C)[C@H]5CC=C6[C@@H]7CC(C)(C)CC[C@]7(C(=O)O[C@@H]7O[C@H](CO[C@@H]8OC[C@](O)(CO)[C@H]8O)[C@@H](O)[C@H](O)[C@H]7O)CC[C@@]6(C)[C@]5(C)CC[C@H]4C3(C)C)O[C@@H](C(=O)O)[C@@H]2O[C@@H]2OC[C@@H](O)[C@H](O)[C@H]2O)[C@@H](O)[C@@H](O)[C@@H]1O ?
Result :: 0.0

Query :: What call does the record list for CC[C@H](CC[C@@H](C)[C@H]1CC[C@H]2[C@@H]3CC=C4C[C@@H](O)CC[C@]4(C)[C@H]3CC[C@]12C)C(C)C ?
Result :: 0.0

Query :: What call does the record list for C[C@H]1O[C@H](O[C@H]2[C@H](O[C@H]3CC[C@]4(C)[C@H]5CC=C6[C@@H]7CC(C)(C)CC[C@]7(CO)[C@H](O)C[C@@]6(C)[C@]5(C)CC[C@H]4C3(C)C)O[C@H](C(=O)O)[C@H](O[C@H]3O[C@@H](CO[C@@H]4O[C@H](CO)[C@@H](O)[C@H](O)[C@H]4O)[C@@H](O)[C@@H](O)[C@@H]3O)[C@@H]2O)[C@@H](O)[C@@H](O)[C@@H]1O ?
Result :: 1.0

Query :: What call does the record list for COC(=O)[C@@]1(C)CC[C@]2(C(=O)O[C@@H]3O[C@H](CO)[C@@H](O)[C@H](O)[C@H]3O)CC[C@]3(C)C(=CC[C@@H]4[C@@]5(C)CC[C@H](O[C@@H]6O[C@H](C(=O)O)[C@@H](O)[C@H](O)[C@H]6O)C(C)(C)[C@@H]5CC[C@]43C)[C@@H]2C1 ?
Result :: 0.0

Query :: What call does the record list for C[C@@H]1O[C@@H](O[C@H]2[C@H](O[C@H]3CC[C@@]4(C)[C@@H](CC[C@]5(C)[C@@H]4CC=C4[C@@H]6CC(C)(C)CC[C@]6(C(=O)O)CC[C@]45C)[C@]3(C)CO)OC[C@H](O)[C@@H]2O)[C@H](O)[C@H](O)[C@H]1O ?
Result :: 1.0

Query :: What call does the record list for CC1(C)[C@@H](O[C@H]2O[C@H](C(=O)O)[C@@H](O)[C@H](O)[C@H]2O[C@@H]2O[C@H](C(=O)O)[C@@H](O)[C@H](O)[C@H]2O)CC[C@]2(C)[C@H]3C(=O)C=C4[C@@H]5C[C@@](C)(C(=O)O)CC[C@]5(C)CC[C@@]4(C)[C@]3(C)CC[C@@H]12 ?
Result :: 0.0
